# target_under_test: T1, C5a receptor (Homo sapiens, UniProt P21730)
# T1 construct: Neutrophils were purified from human peripheral blood; endogenous in cells; host or cells: neutrophils from human peripheral blood
# T1 sequence (P21730 1-350): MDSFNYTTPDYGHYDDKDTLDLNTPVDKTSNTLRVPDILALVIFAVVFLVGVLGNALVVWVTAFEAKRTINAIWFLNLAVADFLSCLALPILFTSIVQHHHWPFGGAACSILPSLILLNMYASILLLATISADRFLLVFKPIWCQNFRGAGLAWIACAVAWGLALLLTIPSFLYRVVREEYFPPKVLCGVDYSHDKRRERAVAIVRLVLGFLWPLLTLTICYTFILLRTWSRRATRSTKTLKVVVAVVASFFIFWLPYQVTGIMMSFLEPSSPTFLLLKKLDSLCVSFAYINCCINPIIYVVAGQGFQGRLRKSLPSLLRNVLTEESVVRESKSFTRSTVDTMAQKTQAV
# test_method_notes: Receptor binding assay: displacement of [125I]Bolton-Hunter labelled C5a from PMNL membranes
# setup_conditions: Table 6, Example 10 comparison with decapeptide
Quick list: Ki per entry.
Could you give me the number in nM? Just the number is fine.

molecule="C5a (1-73, T1M, C27S, G73C) (protein, UniProt P01031 678-751, looked up, variant T1M C27S G73C, C5a anaphylatoxin truncated to residues 1-73, agonist, included for comparison) C5a anaphylatoxin: MLQKKIEEIAAKYKHSVVKKCCYDGASVNNDETCEQRAARISLGPRCIKAFTECCVVASQLRANISHKDMQLCR" measured_property=Ki unit_tag=nM numeric_readout=0.03

Read the next record carefully.
Respond only with Ki recorded for C5a (1-71, T1M, C27S, Q71C) (protein, UniProt P01031 678-751, looked up, variant T1M C27S Q71C, C5a anaphylatoxin) C5a anaphylatoxin: MLQKKIEEIAAKYKHSVVKKCCYDGASVNNDETCEQRAARISLGPRCIKAFTECCVVASQLRANISHKDMCLGR 0.04
